# tested_on: CDK6/Cyclin D3 (Homo sapiens)
# Sequence (Q00534 whole entry): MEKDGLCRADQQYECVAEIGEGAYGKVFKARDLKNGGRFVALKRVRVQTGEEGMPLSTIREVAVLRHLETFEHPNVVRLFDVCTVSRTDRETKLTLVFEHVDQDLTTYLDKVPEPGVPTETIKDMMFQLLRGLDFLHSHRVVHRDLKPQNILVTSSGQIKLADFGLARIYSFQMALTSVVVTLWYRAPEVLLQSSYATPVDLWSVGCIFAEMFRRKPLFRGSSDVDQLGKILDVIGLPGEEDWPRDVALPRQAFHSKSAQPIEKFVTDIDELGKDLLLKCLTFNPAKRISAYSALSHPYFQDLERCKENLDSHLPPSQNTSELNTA
# Sequence (P30281 whole entry partner): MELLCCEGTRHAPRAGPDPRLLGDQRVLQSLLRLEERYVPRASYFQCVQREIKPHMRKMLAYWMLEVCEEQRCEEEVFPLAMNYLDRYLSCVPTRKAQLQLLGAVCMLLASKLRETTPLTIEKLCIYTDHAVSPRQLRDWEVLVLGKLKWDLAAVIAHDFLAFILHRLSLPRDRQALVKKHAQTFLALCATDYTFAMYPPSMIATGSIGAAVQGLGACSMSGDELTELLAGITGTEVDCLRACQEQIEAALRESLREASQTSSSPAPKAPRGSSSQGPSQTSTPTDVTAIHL
# experiment_description: CDK6/Cyclin D3 kinase inhibition TR-FRET assay
# Format: biochemical
# condition_parameters: 1 mM ATP, 0.15 μM Rb (Ser780)-biotin substrate, read-out: CDK6D3 IC50
# Description: Compounds disclosed herein were tested for inhibition of CDK4/Cyclin D1 or CDK6/Cyclin D3 kinase in an assay based on the time-resolved fluorescence-resonance energy transfer (TR-FRET) methodology. […] Plates were incubated at room temperature for 60 minutes, and the TR-FRET signals (ex337 nm, em665 nm/620 nm) were recorded on a PHERAstar FSX plate reader (BMG Labtech). […]
Below, each entry is listed alongside its reported IC50.
Please format your answer as a value with the unit trailing.

// known answers, use as guide
{"columns": ["compound", "observed_result"],
 "data": [
  ["CC(C)c1c(CN2CCC[C@@H](C#N)C2)cnc2ccc(-c3nc(N[C@@H]4CCOC[C@@H]4O)ncc3F)cc12 [Example 7]", "544 nM"],
  ["CC(C)c1c(CN2CCC[C@H](C#N)C2)cnc2ccc(-c3nc(N[C@@H]4CCOC[C@@H]4O)ncc3F)cc12 [Example 6]", "273 nM"],
  ["CC(C)c1c(C2(O)CCCC2)cnc2ccc(-c3nc(N[C@@H]4CCOC[C@@H]4O)ncc3F)cc12 [Example 12]", "300 nM"]
]}

Shifting focus to the compound that follows.
Q) Which value of IC50 has been reported for CC(C)c1c(CN[C@@H]2CCCOC2)cnc2ccc(-c3nc(N[C@@H]4CCOC[C@@H]4O)ncc3F)cc12 [Example 3] in the records?
A) 1100 nM
